System: Plasma
Assay: Total plasma concentration in C57Bl/6 mouse at 100 mg/kg, po
Type: ADME, organism-based
Settings: in vivo
test readout: concentration

What measured concentration goes with `COc1cc(-c2cccc(C(F)(F)F)c2)c(F)cc1-c1nccc2cc(S(=O)(=O)Nc3ccon3)ccc12` ? 106 µM

====

Biological target: Sodium channel protein type 3 subunit alpha (Homo sapiens, UniProt Q9NY46)
Sequence (Q9NY46 whole entry): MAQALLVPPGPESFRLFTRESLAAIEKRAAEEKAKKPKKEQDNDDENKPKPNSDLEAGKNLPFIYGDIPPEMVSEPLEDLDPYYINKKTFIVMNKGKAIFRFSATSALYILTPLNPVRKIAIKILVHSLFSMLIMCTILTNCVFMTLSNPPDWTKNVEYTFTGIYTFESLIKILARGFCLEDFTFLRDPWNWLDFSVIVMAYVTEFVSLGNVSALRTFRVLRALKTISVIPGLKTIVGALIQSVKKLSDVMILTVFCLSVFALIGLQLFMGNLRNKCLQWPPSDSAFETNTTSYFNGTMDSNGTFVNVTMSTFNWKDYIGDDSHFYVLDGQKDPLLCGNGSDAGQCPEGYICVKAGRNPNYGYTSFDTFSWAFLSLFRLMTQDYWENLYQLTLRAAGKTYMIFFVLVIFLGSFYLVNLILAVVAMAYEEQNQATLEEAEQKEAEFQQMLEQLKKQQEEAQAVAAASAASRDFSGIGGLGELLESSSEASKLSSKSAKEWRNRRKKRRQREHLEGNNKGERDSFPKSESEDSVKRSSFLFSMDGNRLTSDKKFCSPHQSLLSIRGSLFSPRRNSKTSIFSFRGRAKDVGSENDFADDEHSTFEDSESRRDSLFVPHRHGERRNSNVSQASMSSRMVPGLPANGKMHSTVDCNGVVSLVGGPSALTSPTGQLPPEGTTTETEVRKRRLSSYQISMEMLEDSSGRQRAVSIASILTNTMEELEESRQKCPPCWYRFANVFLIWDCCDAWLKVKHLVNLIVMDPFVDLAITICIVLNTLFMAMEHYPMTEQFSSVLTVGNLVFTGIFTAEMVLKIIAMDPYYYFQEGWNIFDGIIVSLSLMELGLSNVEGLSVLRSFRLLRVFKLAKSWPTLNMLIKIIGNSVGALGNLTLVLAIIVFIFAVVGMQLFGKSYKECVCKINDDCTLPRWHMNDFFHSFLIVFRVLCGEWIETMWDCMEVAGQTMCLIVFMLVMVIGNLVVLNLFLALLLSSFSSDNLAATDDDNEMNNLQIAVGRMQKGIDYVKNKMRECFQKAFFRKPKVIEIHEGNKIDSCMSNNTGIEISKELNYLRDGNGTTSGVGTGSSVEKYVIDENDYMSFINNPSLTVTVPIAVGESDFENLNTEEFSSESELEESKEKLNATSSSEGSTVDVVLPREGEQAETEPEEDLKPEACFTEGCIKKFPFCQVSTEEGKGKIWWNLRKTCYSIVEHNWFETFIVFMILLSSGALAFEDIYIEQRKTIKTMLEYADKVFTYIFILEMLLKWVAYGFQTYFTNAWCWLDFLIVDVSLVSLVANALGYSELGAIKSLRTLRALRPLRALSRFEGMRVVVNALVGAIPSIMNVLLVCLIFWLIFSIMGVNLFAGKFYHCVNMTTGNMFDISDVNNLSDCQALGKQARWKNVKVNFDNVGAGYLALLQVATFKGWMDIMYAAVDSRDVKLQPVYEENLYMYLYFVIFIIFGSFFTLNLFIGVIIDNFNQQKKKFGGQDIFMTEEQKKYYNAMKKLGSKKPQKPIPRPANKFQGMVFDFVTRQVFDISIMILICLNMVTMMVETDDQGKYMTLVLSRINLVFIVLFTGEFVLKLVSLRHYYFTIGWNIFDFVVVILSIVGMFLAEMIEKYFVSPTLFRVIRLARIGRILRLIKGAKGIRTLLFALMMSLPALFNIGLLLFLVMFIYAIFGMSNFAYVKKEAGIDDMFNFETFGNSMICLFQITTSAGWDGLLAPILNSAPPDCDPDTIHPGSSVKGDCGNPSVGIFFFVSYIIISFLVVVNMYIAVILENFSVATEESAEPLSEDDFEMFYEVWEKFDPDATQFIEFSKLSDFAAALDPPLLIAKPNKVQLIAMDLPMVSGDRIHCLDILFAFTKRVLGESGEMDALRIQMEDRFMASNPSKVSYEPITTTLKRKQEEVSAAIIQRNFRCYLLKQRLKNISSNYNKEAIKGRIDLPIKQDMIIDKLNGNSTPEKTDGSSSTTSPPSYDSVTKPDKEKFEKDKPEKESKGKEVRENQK
Experiment: Inhibition of human Nav1.3 expressed in CHO cells assessed as reduction in peak inward current by ionworks quattro electrophysiology assay
Type: cell-based
test readout: pIC50
Give bare numbers, as −log10 of the molar value.

I would be grateful if you could share the reported pIC50 for `COc1cc(-c2cccc(C(F)(F)F)c2)c(F)cc1-c1nccc2cc(S(=O)(=O)Nc3ccon3)ccc12` . 5.16
